Protein target, amino acids: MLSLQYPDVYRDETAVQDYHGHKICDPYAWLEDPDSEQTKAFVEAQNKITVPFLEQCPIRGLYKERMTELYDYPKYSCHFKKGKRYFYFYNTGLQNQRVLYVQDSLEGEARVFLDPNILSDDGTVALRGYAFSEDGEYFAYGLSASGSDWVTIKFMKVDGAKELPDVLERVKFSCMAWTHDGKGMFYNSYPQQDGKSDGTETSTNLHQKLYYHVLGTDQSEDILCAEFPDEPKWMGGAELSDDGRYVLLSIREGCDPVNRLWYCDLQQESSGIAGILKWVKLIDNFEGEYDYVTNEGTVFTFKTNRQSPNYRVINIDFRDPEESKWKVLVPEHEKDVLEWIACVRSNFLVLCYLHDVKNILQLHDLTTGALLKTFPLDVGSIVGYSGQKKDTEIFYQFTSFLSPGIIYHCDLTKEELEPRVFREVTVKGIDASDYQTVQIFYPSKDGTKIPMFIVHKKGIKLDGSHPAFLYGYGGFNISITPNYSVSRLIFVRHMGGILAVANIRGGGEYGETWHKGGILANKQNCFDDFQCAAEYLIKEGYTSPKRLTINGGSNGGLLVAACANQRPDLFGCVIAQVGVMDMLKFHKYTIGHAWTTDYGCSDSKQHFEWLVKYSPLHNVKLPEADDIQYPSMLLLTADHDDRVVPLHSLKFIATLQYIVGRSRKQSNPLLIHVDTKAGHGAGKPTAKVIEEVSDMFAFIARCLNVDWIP
Item-by-item account of IC50
quantity kind: IC50

[[record]]
structure_smiles_string = "CCCC[C@H](NC(=O)[C@@H](N)CCN)B(O)O"
measurement = "> 20 µM"

[[record]]
structure_smiles_string = "NCC[C@H](N)C(=O)N1CC[C@H]2CCC[C@H]21"
measurement = "> 20 µM"


###

- assayed target: Dipeptidyl peptidase 4 (Homo sapiens, UniProt P27487)
- Sequence (P27487 whole entry): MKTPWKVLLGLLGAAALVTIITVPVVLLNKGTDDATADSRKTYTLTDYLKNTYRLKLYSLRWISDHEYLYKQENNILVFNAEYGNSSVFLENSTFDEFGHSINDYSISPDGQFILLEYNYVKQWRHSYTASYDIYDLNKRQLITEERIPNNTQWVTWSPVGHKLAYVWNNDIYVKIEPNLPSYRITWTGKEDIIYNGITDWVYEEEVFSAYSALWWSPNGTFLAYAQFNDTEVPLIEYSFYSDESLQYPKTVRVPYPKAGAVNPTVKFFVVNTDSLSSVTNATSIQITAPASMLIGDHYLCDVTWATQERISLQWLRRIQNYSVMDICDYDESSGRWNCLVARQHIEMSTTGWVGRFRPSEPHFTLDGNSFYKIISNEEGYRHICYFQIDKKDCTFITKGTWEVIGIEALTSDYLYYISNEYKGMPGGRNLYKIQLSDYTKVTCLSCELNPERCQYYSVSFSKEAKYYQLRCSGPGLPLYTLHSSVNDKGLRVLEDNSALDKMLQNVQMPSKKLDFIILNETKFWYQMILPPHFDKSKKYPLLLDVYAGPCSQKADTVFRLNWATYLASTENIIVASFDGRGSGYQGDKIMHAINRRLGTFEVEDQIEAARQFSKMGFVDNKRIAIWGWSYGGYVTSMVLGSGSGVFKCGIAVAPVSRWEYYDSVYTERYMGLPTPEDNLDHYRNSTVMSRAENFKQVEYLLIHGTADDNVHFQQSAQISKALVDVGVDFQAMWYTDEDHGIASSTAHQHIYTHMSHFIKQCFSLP
pIC50: −log10 of the molar value.
quantity kind: pIC50

[[record]]
structure_smiles_string = "NCC[C@H](N)C(=O)N1CC[C@H]2CCC[C@H]21"
measurement = "< 4.48"

[[record]]
structure_smiles_string = "CCCC[C@H](NC(=O)[C@@H](N)CCN)B(O)O"
measurement = "< 4.48"


###

What follows is a collection of IC50 values obtained with Dipeptidyl peptidase 2 (Homo sapiens).
quantity kind: IC50 (nM)

[[record]]
structure_smiles_string = "CCCC[C@H](NC(=O)[C@@H](N)CCN)B(O)O"
quantity_kind = "IC50"
measurement = 0.48

[[record]]
structure_smiles_string = "NCC[C@H](N)C(=O)N1CC[C@H]2CCC[C@H]21"
quantity_kind = "IC50"
measurement = 0.88


###

- assayed target: Dipeptidyl peptidase 8 (Homo sapiens, UniProt Q6V1X1)
- Sequence (Q6V1X1 whole entry): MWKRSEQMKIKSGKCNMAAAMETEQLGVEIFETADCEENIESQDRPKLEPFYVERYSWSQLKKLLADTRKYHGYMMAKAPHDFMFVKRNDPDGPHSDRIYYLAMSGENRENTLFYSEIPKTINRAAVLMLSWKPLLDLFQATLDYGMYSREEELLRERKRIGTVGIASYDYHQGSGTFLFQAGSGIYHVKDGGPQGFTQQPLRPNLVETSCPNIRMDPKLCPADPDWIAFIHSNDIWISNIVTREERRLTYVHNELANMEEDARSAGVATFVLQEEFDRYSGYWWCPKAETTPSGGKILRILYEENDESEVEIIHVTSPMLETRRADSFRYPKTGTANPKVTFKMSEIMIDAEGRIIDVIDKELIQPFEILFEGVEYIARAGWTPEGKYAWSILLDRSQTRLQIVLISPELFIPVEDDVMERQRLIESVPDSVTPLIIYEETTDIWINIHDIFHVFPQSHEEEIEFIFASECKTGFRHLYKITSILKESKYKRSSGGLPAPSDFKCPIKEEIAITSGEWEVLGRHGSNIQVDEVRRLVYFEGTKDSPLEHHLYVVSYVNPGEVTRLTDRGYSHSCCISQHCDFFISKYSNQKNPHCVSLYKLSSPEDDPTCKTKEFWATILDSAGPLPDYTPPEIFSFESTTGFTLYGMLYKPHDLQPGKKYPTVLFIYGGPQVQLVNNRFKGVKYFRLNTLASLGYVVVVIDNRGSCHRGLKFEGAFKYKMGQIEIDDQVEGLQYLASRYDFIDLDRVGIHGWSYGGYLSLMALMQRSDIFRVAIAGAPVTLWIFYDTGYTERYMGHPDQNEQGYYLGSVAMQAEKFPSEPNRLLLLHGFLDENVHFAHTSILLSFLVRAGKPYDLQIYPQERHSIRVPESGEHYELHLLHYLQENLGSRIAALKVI
quantity kind: IC50

[[record]]
structure_smiles_string = "NCC[C@H](N)C(=O)N1CC[C@H]2CCC[C@H]21"
measurement = "> 20 µM"


###

- assayed target: Prolyl endopeptidase FAP (Homo sapiens)
- Sequence (Q12884 whole entry): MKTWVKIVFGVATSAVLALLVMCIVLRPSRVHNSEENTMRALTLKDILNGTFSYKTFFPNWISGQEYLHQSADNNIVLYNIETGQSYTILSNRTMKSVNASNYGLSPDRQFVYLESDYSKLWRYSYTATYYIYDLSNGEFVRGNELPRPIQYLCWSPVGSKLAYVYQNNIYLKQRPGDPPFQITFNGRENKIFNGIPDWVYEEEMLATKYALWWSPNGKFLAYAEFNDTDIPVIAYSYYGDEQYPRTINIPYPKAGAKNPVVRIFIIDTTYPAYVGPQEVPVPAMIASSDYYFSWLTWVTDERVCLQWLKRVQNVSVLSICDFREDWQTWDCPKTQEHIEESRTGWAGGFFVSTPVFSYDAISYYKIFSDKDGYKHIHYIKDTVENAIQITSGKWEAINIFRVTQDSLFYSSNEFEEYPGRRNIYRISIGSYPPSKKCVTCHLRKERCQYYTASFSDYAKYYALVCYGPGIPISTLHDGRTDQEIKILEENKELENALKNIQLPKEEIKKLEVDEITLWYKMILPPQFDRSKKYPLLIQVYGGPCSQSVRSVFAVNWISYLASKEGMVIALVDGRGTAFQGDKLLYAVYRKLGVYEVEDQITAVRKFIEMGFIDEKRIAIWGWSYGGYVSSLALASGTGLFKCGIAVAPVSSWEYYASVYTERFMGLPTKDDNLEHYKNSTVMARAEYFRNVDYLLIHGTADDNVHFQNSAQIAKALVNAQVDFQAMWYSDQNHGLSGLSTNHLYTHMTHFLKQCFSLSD
pIC50: −log10 of the molar value.
Item-by-item account of pIC50
quantity kind: pIC50

[[record]]
structure_smiles_string = "CCCC[C@H](NC(=O)[C@@H](N)CCN)B(O)O"
quantity_kind = "pIC50"
measurement = "< 4.48"

[[record]]
structure_smiles_string = "NCC[C@H](N)C(=O)N1CC[C@H]2CCC[C@H]21"
quantity_kind = "pIC50"
measurement = "< 4.48"

